Molecular target: T1, human CD22-ECD-His protein (human, UniProt P20273 20-687)
T1 construct: Made in house in HEK293E; also called hCD22-ECD-His; recombinant human CD22-ECD His protein; not shown: His tag
T1 sequence: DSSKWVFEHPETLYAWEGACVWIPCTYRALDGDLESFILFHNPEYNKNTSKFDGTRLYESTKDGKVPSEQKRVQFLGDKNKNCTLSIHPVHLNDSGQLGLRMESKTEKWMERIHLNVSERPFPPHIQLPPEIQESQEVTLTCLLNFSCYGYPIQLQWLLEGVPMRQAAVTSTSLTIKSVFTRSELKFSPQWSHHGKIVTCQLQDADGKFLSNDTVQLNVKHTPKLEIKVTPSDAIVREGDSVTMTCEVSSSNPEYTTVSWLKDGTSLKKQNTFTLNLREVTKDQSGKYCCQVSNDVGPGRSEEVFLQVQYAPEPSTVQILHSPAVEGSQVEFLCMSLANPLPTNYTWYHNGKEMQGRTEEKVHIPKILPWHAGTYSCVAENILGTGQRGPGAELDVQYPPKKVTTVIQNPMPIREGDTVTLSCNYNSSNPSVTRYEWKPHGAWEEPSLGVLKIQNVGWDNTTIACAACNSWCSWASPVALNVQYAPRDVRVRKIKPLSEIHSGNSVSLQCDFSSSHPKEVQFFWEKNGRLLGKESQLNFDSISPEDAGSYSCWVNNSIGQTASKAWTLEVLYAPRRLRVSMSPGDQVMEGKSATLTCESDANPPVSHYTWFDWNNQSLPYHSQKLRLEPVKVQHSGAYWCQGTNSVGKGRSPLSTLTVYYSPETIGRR
Experiment: ELISA, Ab 0.10 nM
READOUT NAME: OD450 (OD450)
Please state the figure in OD450; there is no need to write the unit.

Past entries and their recorded results:
BINDER | OD450 (OD450)
F1.62.10 (antibody, human IgG1, kappa, V domains shown, Human-murine chimeric IgG1, kappa) VH: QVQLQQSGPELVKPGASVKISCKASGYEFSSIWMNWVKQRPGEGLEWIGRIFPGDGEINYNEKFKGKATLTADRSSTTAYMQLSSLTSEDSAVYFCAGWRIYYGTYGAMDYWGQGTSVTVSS VL: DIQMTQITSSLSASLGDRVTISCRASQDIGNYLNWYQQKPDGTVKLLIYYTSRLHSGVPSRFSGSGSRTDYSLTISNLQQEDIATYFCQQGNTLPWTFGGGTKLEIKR | 2.79
F1.172.13 (antibody, human IgG1, kappa, V domains shown, Human-murine chimeric IgG1, kappa) VH: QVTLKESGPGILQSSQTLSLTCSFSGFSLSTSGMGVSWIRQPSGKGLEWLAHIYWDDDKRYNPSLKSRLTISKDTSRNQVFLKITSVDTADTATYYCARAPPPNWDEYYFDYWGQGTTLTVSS VL: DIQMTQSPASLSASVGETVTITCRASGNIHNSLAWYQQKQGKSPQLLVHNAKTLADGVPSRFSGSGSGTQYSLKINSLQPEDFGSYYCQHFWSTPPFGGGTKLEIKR | 2.53
F2.104.10 (antibody, human IgG1, lambda, V domains shown, Human-murine chimeric IgG1, lambda) VH: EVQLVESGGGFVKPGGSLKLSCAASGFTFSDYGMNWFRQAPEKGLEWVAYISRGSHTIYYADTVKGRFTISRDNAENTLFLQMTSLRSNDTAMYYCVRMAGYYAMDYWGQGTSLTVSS VL: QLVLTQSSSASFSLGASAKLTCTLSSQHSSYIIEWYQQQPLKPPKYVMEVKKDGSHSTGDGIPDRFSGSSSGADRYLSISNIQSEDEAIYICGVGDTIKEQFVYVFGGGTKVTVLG | 1.94
F2.99.1 (antibody, human IgG1, lambda, V domains shown, Human-murine chimeric IgG1, lambda) VH: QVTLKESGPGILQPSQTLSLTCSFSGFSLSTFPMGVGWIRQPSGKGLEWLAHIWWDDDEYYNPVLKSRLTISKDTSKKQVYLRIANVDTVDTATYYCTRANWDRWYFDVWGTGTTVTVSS VL: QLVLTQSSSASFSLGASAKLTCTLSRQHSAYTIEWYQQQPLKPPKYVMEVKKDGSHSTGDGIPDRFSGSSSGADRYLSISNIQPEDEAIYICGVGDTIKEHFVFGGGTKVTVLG | 2.1
F1.200.11 (antibody, human IgG1, kappa, V domains shown, Human-murine chimeric IgG1, kappa) VH: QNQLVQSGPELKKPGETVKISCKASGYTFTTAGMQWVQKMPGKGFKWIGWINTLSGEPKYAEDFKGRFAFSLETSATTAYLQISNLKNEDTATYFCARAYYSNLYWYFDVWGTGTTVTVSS VL: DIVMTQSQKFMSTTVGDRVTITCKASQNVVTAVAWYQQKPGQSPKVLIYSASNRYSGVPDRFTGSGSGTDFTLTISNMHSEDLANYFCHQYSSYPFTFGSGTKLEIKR | 2.4

Now take the following binder into account.
get_value(item= F2.205.9 (antibody, human IgG1, lambda, V domains shown, Human-murine chimeric IgG1, lambda) VH: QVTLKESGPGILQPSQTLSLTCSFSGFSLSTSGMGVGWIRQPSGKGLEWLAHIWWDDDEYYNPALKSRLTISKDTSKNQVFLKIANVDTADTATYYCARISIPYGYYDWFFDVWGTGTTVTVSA VL: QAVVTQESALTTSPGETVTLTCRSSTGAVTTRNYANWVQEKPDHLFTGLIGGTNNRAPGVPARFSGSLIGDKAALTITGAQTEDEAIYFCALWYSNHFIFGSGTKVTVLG , readout=OD450) returns 2.1
